System: PBMCs depleted of CD4+ or CD8+ T cells
Assay type: cell-based, human
Settings: phenotype of the responding T cells per donor; n.d. = assay not done
Assay Metric: T cell phenotype

Below, each entry is followed by its recorded T cell phenotype result.
1) AQIYQAVSAQAAAIH :: CD4
2) AWMSAAAAQAEQAAT :: undetectable
3) AQLSQLISLLPSTLQ :: undetectable
4) ALSAEYAAVAQELSV :: CD4
5) FGQNTSAIAAAEAQY :: CD4

// query State the measured T cell phenotype (PBMCs depleted of CD4+ or CD8+ T cells) of LAAAAAWDALAAELY
// result CD4

// query State the measured T cell phenotype (PBMCs depleted of CD4+ or CD8+ T cells) of AAASWDALAAELASA
// result CD4

// query State the measured T cell phenotype (PBMCs depleted of CD4+ or CD8+ T cells) of LGGLWTAVSPHLSPL
// result CD4

// query State the measured T cell phenotype (PBMCs depleted of CD4+ or CD8+ T cells) of INLIIHYVDRPGALG
// result undetectable

// query State the measured T cell phenotype (PBMCs depleted of CD4+ or CD8+ T cells) of FGQNTGAIAAAEARY
// result CD4

###

Tested on: PBMCs depleted of CD4+ or CD8+ T cells
Assay type: cell-based, human
Conditions: phenotype of the responding T cells per donor; n.d. = assay not done
Assay Metric: T cell phenotype

Below, each entry is followed by its recorded T cell phenotype result.
1. RGKVVLIDFWAYPCI :: undetectable
2. SSYAATEVANAAAAS :: CD4
3. FVQALTTAAASYASV :: undetectable
4. PSPSMGRDIKVQFQS :: undetectable

// query Give recorded T cell phenotype. FFGQNTAAIAATEAQ
// result CD4

// query Give recorded T cell phenotype. QVPSASMGRDIKVQF
// result undetectable

// query Give recorded T cell phenotype. APQINFFYYLGEPIV
// result undetectable

// query Give recorded T cell phenotype. LAWLVQASANSAAMA
// result undetectable
